Tested on: HIV-IIIb (wildtype)
Test: Antiviral assay in MT4 cells, HIV-IIIb wildtype
Format: cell-based, HIV-1
Conditions: Human immunodeficiency virus 1, IIIB, MT4, 120 h, read-out: WT EC50
Kindly state pEC50 for each of the entries shown.
Convention used: pEC50 is expressed as -log10 of the molar concentration.

Problem: Respond only with pEC50 recorded for COC(=O)N1CCC(c2nn(C)c3ccc(-c4nc5cc(C)c([C@H](OC(C)(C)C)C(=O)O)c(-c6ccc(Cl)cc6)c5s4)cc23)C1 (stereo partly drawn)
Solution: 8.15

Problem: Answer with the recorded pEC50 of Cc1cc2nc(-c3ccc4c(c3)c(N3CCN(C)C3=O)nn4C)sc2c(-c2ccc(Cl)cc2)c1[C@H](OC(C)(C)C)C(=O)O only.
Solution: 7.89

Problem: Recall and state the measured pEC50 for COCCN1CCC(c2nn(C)c3ccc(-c4nc5cc(C)c([C@H](OC(C)(C)C)C(=O)O)c(-c6ccc(Cl)cc6)c5s4)cc23)CC1 .
Solution: 8.10

Problem: Return value of pEC50 for input Cc1cc2nc(-c3ccc4c(c3)c(C3CCN(C(=O)[C@@H]5CCCO5)CC3)nn4C)sc2c(-c2ccc(Cl)cc2)c1[C@H](OC(C)(C)C)C(=O)O , no commentary.
Solution: 7.96

Problem: Specify measured pEC50 for Cc1cc2nc(-c3ccc4c(c3)c(C3CCN(C5COC5)CC3)nn4C(F)F)sc2c(-c2ccc(Cl)cc2)c1[C@H](OC(C)(C)C)C(=O)O .
Solution: 7.89

Problem: Tell me pEC50 reported for Cc1cc2nc(-c3ccc4c(c3)c(N3CCOCC3)nn4C)sc2c(-c2ccc(Cl)cc2)c1[C@H](OC(C)(C)C)C(=O)O
Solution: 8.00

====

Test system: HIV-IIIb IN T174I DE
Experiment: Antiviral assay in MT4 cells, HIV-IIIb IN T174I DE virus (from dose escalation passaging)
Type: cell-based, HIV-1
Conditions: Human immunodeficiency virus 1, IIIB, MT4, 120 h, read-out: T174I DE EC50, MT4 cells, HIV-IIIb IN T174I DE (dose escalation), 5 days, CellTiter-Glo
readout-kind: pEC50
Give only the number. pEC50 is defined as minus log10 of concentration in molar units.

Problem: Given the molecule CCOC(=O)N1CC(N2CCC(c3nn(C)c4ncc(-c5nc6cc(C)c([C@H](OC(C)(C)C)C(=O)O)c(-c7ccc(Cl)cc7)c6s5)cc34)CC2)C1 , write its reported pEC50.
Solution: 5.61

Problem: Tell me pEC50 reported for COC(=O)N1CC[C@H]1CN1CCC(c2nn(C)c3ccc(-c4nc5cc(C)c([C@H](OC(C)(C)C)C(=O)O)c(-c6ccc(Cl)cc6)c5s4)cc23)CC1
Solution: 6.74

Problem: Dear colleague, please send me the reported pEC50 for CCN1CCN(c2nn(C)c3ccc(-c4nc5cc(C)c([C@H](OC(C)(C)C)C(=O)O)c(-c6ccc(Cl)cc6)c5s4)cc23)CC1 when you can.
Solution: 6.36

Problem: Tell me measured pEC50 for COCC(C)N1CC(c2nn(C)c3ccc(-c4nc5cc(C)c([C@H](OC(C)(C)C)C(=O)O)c(-c6ccc(Cl)cc6)c5s4)cc23)C1 (some centres unmarked) please.
Solution: 5.46

Problem: Using known records, supply pEC50 for Cc1cc2nc(-c3ccc4c(n3)c(C3CCN(C5CN(C(=O)OC(C)C)C5)CC3)nn4C)sc2c(-c2ccc(Cl)cc2)c1[C@H](OC(C)(C)C)C(=O)O
Solution: 6.34
